Ref: ChEMBL document CHEMBL1671660

procedure text: Protein binding in rat serum
Format: ADME, cell-free
protocol conditions: read-out: PB (converted)

# molecule, fraction unbound
rows = [
    ("COc1cc(Cc2cnc(N)nc2N)c2c(c1OC)OC(C1CC1)C=C2 (stereo unspecified)", 0.1),
]

###

procedure text: Plasma protein binding in human
Type: ADME, cell-free
protocol conditions: read-out: PPB (converted)

# compound, fraction unbound
records = [
    ("COc1cc(Cc2cnc(N)nc2N)c2c(c1OC)OC(C1CC1)C=C2 (stereo unspecified)", 0.07),
]
